# key: entry, value: Activity
# Test system: BT-549
# protocol summary: Anticancer activity against Homo sapiens (human) BT549 cells assessed as cell growth promotion at 10 uM after 48 hr by SRB assay
# Assay type: functional

sample smiles | Activity [%]
Cc1nc(SCC(=O)Nc2nccs2)n(Nc2ccccc2)c1C | 96.32
Cc1nc(SCC(=O)Nc2nc(-c3ccc(Cl)cc3)cs2)n(Nc2ccccc2)c1C | 54
COc1ccc(Nn2c(SCC(=O)Nc3nccs3)nc(C)c2C)cc1 | 105.55
CCOC(=O)c1csc(NC(=O)CSc2nc(C)c(C)n2Nc2ccc(C)cc2)n1 | 91.44
COc1ccc(Nn2c(SCC(=O)Nc3nc(-c4ccc(Cl)cc4)cs3)nc(C)c2C)cc1 | 53.32
Cc1ccc(Nn2c(SCC(=O)Nc3nc(-c4ccccc4)cs3)nc(C)c2C)cc1 | 63.51
Cc1nc(SCC(=O)Nc2nccs2)n(Nc2ccc(Cl)cc2)c1C | 111.12

====

# Test system: SR
# protocol summary: Anticancer activity against Homo sapiens (human) SR cells assessed as cell growth promotion at 10 uM after 48 hr by SRB assay
# Type: functional
# key: entry, value: Activity

sample smiles | measured on | Activity, %
Cc1nc(SCC(=O)Nc2nccs2)n(Nc2ccccc2)c1C | SR | 100.2
Cc1ccc(Nn2c(SCC(=O)Nc3nc(-c4ccccc4)cs3)nc(C)c2C)cc1 | SR | 72.64
COc1ccc(Nn2c(SCC(=O)Nc3nccs3)nc(C)c2C)cc1 | SR | 104
CCOC(=O)c1csc(NC(=O)CSc2nc(C)c(C)n2Nc2ccc(C)cc2)n1 | SR | 87.01
Cc1nc(SCC(=O)Nc2nc(-c3ccc(Cl)cc3)cs2)n(Nc2ccccc2)c1C | SR | 12.66
COc1ccc(Nn2c(SCC(=O)Nc3nc(-c4ccc(Cl)cc4)cs3)nc(C)c2C)cc1 | SR | 40.3
Cc1nc(SCC(=O)Nc2nccs2)n(Nc2ccc(Cl)cc2)c1C | SR | 120.95

====

# key: entry, value: Activity
# System: MCF7
# protocol summary: Anticancer activity against Homo sapiens (human) MCF7 cells assessed as cell growth promotion at 10 uM after 48 hr by SRB assay
# Type: functional

sample smiles | measured on | Activity, %
Cc1nc(SCC(=O)Nc2nccs2)n(Nc2ccc(Cl)cc2)c1C | MCF7 | 104.33
CCOC(=O)c1csc(NC(=O)CSc2nc(C)c(C)n2Nc2ccc(C)cc2)n1 | MCF7 | 80.14
COc1ccc(Nn2c(SCC(=O)Nc3nccs3)nc(C)c2C)cc1 | MCF7 | 102.31
Cc1nc(SCC(=O)Nc2nccs2)n(Nc2ccccc2)c1C | MCF7 | 98.76
Cc1nc(SCC(=O)Nc2nc(-c3ccc(Cl)cc3)cs2)n(Nc2ccccc2)c1C | MCF7 | 27.14
Cc1ccc(Nn2c(SCC(=O)Nc3nc(-c4ccccc4)cs3)nc(C)c2C)cc1 | MCF7 | 24.07
COc1ccc(Nn2c(SCC(=O)Nc3nc(-c4ccc(Cl)cc4)cs3)nc(C)c2C)cc1 | MCF7 | 16.16

====

# key: entry, value: Activity
# System: T47D
# protocol summary: Anticancer activity against Homo sapiens (human) T47D cells assessed as cell growth promotion at 10 uM after 48 hr by SRB assay
# Assay type: functional

sample smiles | unit name | Activity
Cc1nc(SCC(=O)Nc2nccs2)n(Nc2ccc(Cl)cc2)c1C | % | 91.74
Cc1nc(SCC(=O)Nc2nccs2)n(Nc2ccccc2)c1C | % | 90.52
Cc1ccc(Nn2c(SCC(=O)Nc3nc(-c4ccccc4)cs3)nc(C)c2C)cc1 | % | 6.48
COc1ccc(Nn2c(SCC(=O)Nc3nc(-c4ccc(Cl)cc4)cs3)nc(C)c2C)cc1 | % | 39.43
COc1ccc(Nn2c(SCC(=O)Nc3nccs3)nc(C)c2C)cc1 | % | 94.87
Cc1nc(SCC(=O)Nc2nc(-c3ccc(Cl)cc3)cs2)n(Nc2ccccc2)c1C | % | 26.64
CCOC(=O)c1csc(NC(=O)CSc2nc(C)c(C)n2Nc2ccc(C)cc2)n1 | % | 57.89
